Values were extracted from patent US11006631B2.

Plant response rating, Pigweed values, listed per item
- System: pigweed (Amaranthus retroflexus)
- assayInfo: Test A preemergence, pigweed
- Assay type: in vivo
- conditionInfo: 500 g ai/ha, 0 to 100 scale
- From the text: […]
// keep it numeric: no unit symbol after the value

In the examples that follow, each entry is paired with its recorded Plant response rating, Pigweed.
FC(F)(F)c1cc(-c2ncccc2Oc2ncc(Cl)cn2)ccn1: 100
Cc1cnn(-c2ncccc2Oc2ncc(Cl)cn2)c1: 10
Clc1cnc(Oc2cccnc2-n2cc(-c3ccccc3)cn2)nc1: 0
Cc1ccc(Oc2ncc(Cl)cn2)c(-n2cc(Br)cn2)n1: 40
Clc1cnc(Oc2cccnc2-n2cc(Br)cn2)nc1: 90

Please look up its Plant response rating, Pigweed: Clc1cnc(Oc2cccnc2-n2cc(Cl)cn2)nc1
90
